The measurements presented in this section are drawn from the array DNA melting data of Ke et al. (doi:10.1101/2024.01.08.574731).

- EXPERIMENT DESCRIPTION: folding enthalpy; higher = less favourable; fluorescence melt of hairpins on a sequencing array, two-state fit
- TEST CONTEXT: sodium 0.088 M
Would you mind telling me the reported folding enthalpy of each entry?
One number for each entry, in kcal/mol.

Example entries and their recorded answers appear below.
GAAGGTGGAAACACCCTC ((.((((....)))).)) ... -12.1
GATCTTACAAAGATC ((((((...)))))) ... -32.2
GTGAGCGAAAGCTTTCAC ((((((....)))..))) ... -10.7

Quick one: give me folding enthalpy for each item below, same order please.
1. GGAGTAGGAAACTGCTCC ((((.((....)).))))
2. GCGACGCGAAAGCAACGC (((..((....))..)))
3. TTTACGAAAGTAAA (((((....)))))
4. GCTGGGCGAAAGCGCTGC ((.(.((....)).).))
5. CGCTTACGGAAACGTGCG (((..(((....))))))

Result block:
-28.5
-16.8
-13.5
-31.7
-24.4
